ASSAY OVERVIEW: growth inhibition of DIPG cells – cell-based, MIPE4.0 library, CellTiter-Glo luminescence, qHTS (AID 1347066);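 also: cells exposed to compound for 48 hours before readout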
CONDITION DETAILS: SU-DIPG-VI viability, CellTiter-Glo ATP luminescence
Results filed as inconclusive are left out. Calls of active or inactive are those of the source. The limit is not given here; nearly all actives have AC50 up to about 30 µM.
Outcome codes: active, inactive

{"MOLECULE": "O=C(NOCC(O)CO)c1cc(Br)c(F)c(F)c1Nc1ccc(I)cc1F (stereo not given)", "DISCRETE LABEL": "inactive"}
{"MOLECULE": "Nc1ncnc2c1ncn2[C@@H]1O[C@@H](CO)[C@H](O)[C@@H]1O", "DISCRETE LABEL": "inactive"}
{"MOLECULE": "CNC(=O)c1ccc2cc(C3(O)CCn4cncc43)ccc2c1 (stereo not given)", "DISCRETE LABEL": "inactive"}
{"MOLECULE": "CN1[C@@H]2CC(OC(=O)[C@@H](CO)c3ccccc3)C[C@H]1[C@H]1O[C@H]12 (stereo not given in full)", "DISCRETE LABEL": "inactive"}
{"MOLECULE": "COc1cc(=C2C=c3ccccc3=N2)[nH]/c1=C/c1[nH]c(C)cc1C", "DISCRETE LABEL": "active"}
{"MOLECULE": "O=C(Nc1ccc(Oc2ccnc3[nH]ccc23)c(F)c1)c1cccn(-c2ccc(F)cc2)c1=O", "DISCRETE LABEL": "inactive"}
{"MOLECULE": "OC[C@H]1O[C@@H](n2cnc3c2NC=NC[C@H]3O)C[C@@H]1O", "DISCRETE LABEL": "inactive"}
{"MOLECULE": "CCCCCCCCCCCC(CC1OC(=O)C1CCCCCC)OC(=O)C(CC(C)C)NC=O (stereo not given)", "DISCRETE LABEL": "inactive"}
{"MOLECULE": "CC(O)C1C(=O)N2C(C(=O)O)=C(SC3CNC(C(=O)N(C)C)C3)C(C)C12 (stereo not given)", "DISCRETE LABEL": "inactive"}
{"MOLECULE": "CN(C)Cc1c(C(=O)NCCOc2ccc(C(=O)NO)cc2)oc2ccccc12", "DISCRETE LABEL": "active"}
{"MOLECULE": "CCCS(=O)(=O)Nc1ccc(F)c(C(=O)c2c[nH]c3ncc(Cl)cc23)c1F", "DISCRETE LABEL": "inactive"}
{"MOLECULE": "NC(=O)c1cccc2[nH]c(-c3ccc([C@H]4CCCN4)cc3F)nc12", "DISCRETE LABEL": "inactive"}
{"MOLECULE": "N=C1S/C(=C\\c2ccc(-c3ccc4c(c3)C(=O)NC4=O)o2)C(=O)N1c1ccc(Br)cc1", "DISCRETE LABEL": "inactive"}
{"MOLECULE": "CNC1[C@@H](O)C(O[C@@H]2C(O)C(O[C@H]3O[C@H]([C@@H](C)NC)CC[C@H]3N)[C@@H](N)C[C@H]2N)OC[C@]1(C)O (stereo not given in full)", "DISCRETE LABEL": "inactive"}
{"MOLECULE": "CCCCCCCCCCCCCCCC(=O)O[C@@H]1[C@@H](O)[C@@H](O)[C@@H]([C@H](NC(=O)[C@@H]2C[C@@H](CCC)CN2C)[C@H](C)Cl)O[C@@H]1SC", "DISCRETE LABEL": "inactive"}
{"MOLECULE": "CC1(C)Cc2c(sc(NC(=S)NC(=O)c3ccccc3)c2C(=O)O)CO1", "DISCRETE LABEL": "inactive"}
{"MOLECULE": "Cc1cc(-c2nnc3n2CCCCC3)c(C)n1-c1ccccc1", "DISCRETE LABEL": "inactive"}
{"MOLECULE": "O=C(O)C1=NC(C(=O)O)CC(/C=C/N2c3cc(O)c(OC4OC(CO)C(O)C(O)C4O)cc3CC2C(=O)O)=C1 (stereo not given)", "DISCRETE LABEL": "inactive"}
{"MOLECULE": "C[C@@H](NC(=O)c1ncnc(N)c1Cl)c1ncc(C(=O)Nc2cc(C(F)(F)F)c(Cl)cn2)s1", "DISCRETE LABEL": "inactive"}
{"MOLECULE": "C/C(O)=C(\\C#N)C(=O)Nc1ccc(C(F)(F)F)cc1", "DISCRETE LABEL": "inactive"}
{"MOLECULE": "CC(C)(C)NC(=O)Nc1cccc(Nc2ncc(F)c(NC(C)(C)CO)n2)c1", "DISCRETE LABEL": "inactive"}
{"MOLECULE": "Cc1cccc(-c2[nH]ncc2-c2ccc3ncccc3n2)n1", "DISCRETE LABEL": "inactive"}
{"MOLECULE": "COc1ccccc1N1CCN(CCN(C(=O)C2CCCCC2)c2ccccn2)CC1", "DISCRETE LABEL": "inactive"}
{"MOLECULE": "Cc1c(NC(=O)c2ccc(C(C)(C)C)cc2)cccc1-c1cn(C)c(=O)c(Nc2ccc(C(=O)N3CCOCC3)cc2)n1", "DISCRETE LABEL": "inactive"}
{"MOLECULE": "N#Cc1ccc(COC[C@H]2O[C@@H](n3c(NCc4ccc(Cl)c(Cl)c4)nc4c(N)ncnc43)[C@H](O)[C@@H]2O)cc1", "DISCRETE LABEL": "inactive"}
{"MOLECULE": "Cc1nc(C(=O)NCC(=O)O)c(O)c2ccc(Oc3ccccc3)cc12", "DISCRETE LABEL": "inactive"}
{"MOLECULE": "Clc1cc(Cl)cc(CNc2ncncc2-c2ccc3c(c2)OCO3)c1", "DISCRETE LABEL": "inactive"}
{"MOLECULE": "CC(=O)Nc1sc2c(c1-c1nc3ccccc3s1)CNC2", "DISCRETE LABEL": "inactive"}
{"MOLECULE": "CCCCCCCCc1ccc(CCC(N)(CO)CO)cc1", "DISCRETE LABEL": "active"}
{"MOLECULE": "CCC(C)CCCCC(=O)N[C@@H](CCN)C(=O)NC(C(=O)N[C@H](CCN)C(=O)N[C@@H]1CCNC(=O)C([C@@H](C)O)NC(=O)[C@@H](CCN)NC(=O)[C@@H](CCN)NC(=O)[C@@H](CC(C)C)NC(=O)[C@H](Cc2ccccc2)NC(=O)[C@H](CCN)NC1=O)[C@@H](C)O (stereo not given in full)", "DISCRETE LABEL": "inactive"}
{"MOLECULE": "Cc1cnc(Nc2ccc(CN3CCOCC3)cc2)nc1Nc1cccc(S(=O)(=O)NC(C)(C)C)c1", "DISCRETE LABEL": "active"}
{"MOLECULE": "CC(C)(O)[C@H]1CC[C@@](C)([C@H]2[C@@H](O)C[C@@]3(C)[C@@H]4C[C@H](O[C@@H]5O[C@H](CO)[C@@H](O)[C@H](O)[C@H]5O)[C@H]5C(C)(C)[C@@H](O[C@@H]6OC[C@@H](O)[C@H](O)[C@H]6O)CC[C@@]56C[C@@]46CC[C@]23C)O1", "DISCRETE LABEL": "inactive"}
{"MOLECULE": "CC[C@H]1OC(=O)[C@H](C)[C@@H](O[C@H]2C[C@@](C)(OC)[C@@H](O)[C@H](C)O2)[C@H](C)[C@@H](O[C@@H]2O[C@@H](C)C[C@H](N(C)C)[C@H]2O)[C@](C)(O)C[C@@H](C)C(=O)[C@H](C)[C@@H](O)[C@]1(C)O", "DISCRETE LABEL": "inactive"}
{"MOLECULE": "C[C@@H]1C(=O)O[C@H]2CC34[C@H]5C[C@@H](C(C)(C)C)C36[C@@H](OC(=O)[C@@H]6O)O[C@@]4(C(=O)O5)[C@]21O (stereo not given in full)", "DISCRETE LABEL": "inactive"}
{"MOLECULE": "CN(C)Cc1ccc(-c2nc3cccc4c3n2CCNC4=O)cc1", "DISCRETE LABEL": "inactive"}

====

Collected viability values appear next to each entry.
ASSAY OVERVIEW: drug combination growth inhibition, ovarian cancer – cell-based, oncology-focused library, rucaparib conditional, profiling panel (AID 1508598)
CONDITION DETAILS: patient-derived ovarian cancer cells, CellTiter-Glo viability, 144 h; at 5 µM; OCI-C5x cells; with rucaparib 10 µM; hits give low values; 100% = cells with rucaparib alone

{"SMILES CODE": "COc1cc(Nc2nc3ccccc3nc2NS(=O)(=O)c2ccc(NC(=O)c3ccc(C)c(OC)c3)cc2)cc(OC)c1", "viability [%]": 111}
{"SMILES CODE": "COc1cc2nccc(Oc3ccc(NC(=O)Nc4cc(C)on4)c(Cl)c3)c2cc1OC", "viability [%]": 150}
{"SMILES CODE": "CC1(COc2ccc3c(c2)ncn3-c2ccc3cccc(N4CCC(N)CC4)c3n2)COC1", "viability [%]": 77.3}
{"SMILES CODE": "Cc1cnc(NC(=O)Nc2cc(Br)c(C)cc2OC[C@@H]2CNCCO2)cn1", "viability [%]": 3.26}
{"SMILES CODE": "CCC(CC)CC1(C(=O)Nc2ccccc2SC(=O)C(C)C)CCCCC1", "viability [%]": 110}
{"SMILES CODE": "Cc1ccc(C(=O)N(CCCN)[C@@H](c2oc3cc(Cl)ccc3c(=O)c2Cc2ccccc2)C(C)C)cc1", "viability [%]": 4.98}
{"SMILES CODE": "Cc1ccc(C(=O)Nc2ccc(CN3CCN(C)CC3)c(C(F)(F)F)c2)cc1C#Cc1cnc2cccnn12", "viability [%]": 2.01}
{"SMILES CODE": "CCOc1cc2ncc(C#N)c(Nc3ccc(F)c(Cl)c3)c2cc1NC(=O)/C=C/CN(C)C", "viability [%]": 1.66}
{"SMILES CODE": "CN(C)Cc1ccc(-c2nc3cccc4c3n2CCNC4=O)cc1", "viability [%]": 120}
